Tested on: SF-268 CNS
protocol notes: NCI-60 one-dose screen, 48 h (100 = growth as untreated, 0 = no growth, -100 = all killed)
assay context: 10 µM unless noted
Compounds without any hit were thinned out: in the full panel of roughly 83,000, 20% have a hit. Active and inactive are the calls of the source. Rule for the calls: active = growth percent below 10; inactive = the rest.
measured endpoint: growth

INSERT INTO measurements (compound, target_of_assay, result) VALUES
  ('CCOP(=O)(NC)OCC', 'SF-268 CNS', '98.7% (inactive)'),
  ('O=C(O)CNCP(=O)(O)O', 'SF-268 CNS', '113% (inactive)'),
  ('O=C1NC(=O)C(=C/C=C/c2ccccc2)C(=O)N1', 'SF-268 CNS', '30% (inactive)'),
  ('COc1ccc(N(CC(=O)NCCC[Te]c2ccccc2)C(=O)c2ccccc2)cc1', 'SF-268 CNS', '39.2% (inactive)'),
  ('O=[N+]([O-])c1ccc(OCc2ccc(S(=O)(=O)F)c(Cl)c2)c(Cl)c1', 'SF-268 CNS', '95.8% (inactive)'),
  ('CC[C@H](C)[C@H](NC(=O)[C@H]1CCCCN1C)C(=O)N(C)[C@H](C[C@@H](OC(C)=O)c1cccc(C(=O)N[C@@H](Cc2ccccc2)C[C@H](C)C(=O)OC)n1)C(C)C', 'SF-268 CNS', '13.9% (inactive)'),
  ('CC(=O)Cc1ccc2c(c1)OCO2', 'SF-268 CNS', '98.3% (inactive)'),
  ('CC[C@H](C)[C@H](NC(=O)c1ncccn1)C(=O)N(C)[C@H](C[C@@H](OC(C)=O)c1nc(C(=O)N[C@@H](Cc2ccccc2)C[C@H](C)C(=O)OC)cs1)C(C)C', 'SF-268 CNS', '30.6% (inactive)'),
  ('C[C@]12CC[C@H]3[C@@H](CC=C4c5nc(N)sc5CC[C@@]43C)[C@@H]1CC[C@@H]2O', 'SF-268 CNS', '97.1% (inactive)'),
  ('O=C(O)c1ccccc1N(CCO)CCCl', 'SF-268 CNS', '103% (inactive)'),
  ('C=CC[PH+](c1ccccc1)c1ccccc1.C=CC[PH+](c1ccccc1)c1ccccc1.[Pt+2].[S-]c1ncccn1.[S-]c1ncccn1', 'SF-268 CNS', '87.4% (inactive)'),
  ('C[C@]12CC[C@H]3[C@@H](CC=C4c5nc(-c6ccc(Br)cc6)sc5CC[C@@]43C)[C@@H]1CC[C@@H]2O', 'SF-268 CNS', '90.2% (inactive)'),
  ('O=c1c2ccccc2nc(-c2ccccc2Cl)n1-c1nnc(C(F)(F)F)s1', 'SF-268 CNS', '38.8% (inactive)'),
  ('C=CC[PH+](c1ccccc1)c1ccccc1.C=CC[PH+](c1ccccc1)c1ccccc1.[Pt+2].[S-]c1nc2ccccc2[nH]1.[S-]c1nc2ccccc2[nH]1', 'SF-268 CNS', '1.83% (active)'),
  ('COC(=O)C1=CO[C@@H](C)[C@@H]2CN3CCc4c([nH]c5cc(OC)ccc45)[C@@H]3C[C@H]12', 'SF-268 CNS', '98.6% (inactive)'),
  ('N[C@@H](CCC(=O)CCl)C(=O)O', 'SF-268 CNS', '98.4% [20 µM] (inactive)'),
  ('Nc1ccc(S(=O)(=O)F)cc1', 'SF-268 CNS', '99.8% (inactive)'),
  ('CO[C@H]1[C@H](O[C@@H]2C[C@@H]3C/C=C/C(=O)O[C@@H](CO)C[C@H](O)[C@@H]4C[C@H](C)[C@H](C/C=C\C=C\[C@H](C)C[C@H](C2)O3)O4)O[C@@H](C)[C@H](O)[C@H]1O', 'SF-268 CNS', '86.4% (inactive)'),
  ('COc1cc(C2C3=C(CCCC3=O)N(CCO)c3cc4c(cc32)CCC4)cc(OC)c1OC (centres undefined)', 'SF-268 CNS', '90.4% (inactive)'),
  ('CC[C@H](C)[C@H](NC(=O)C12CC(NC)(C1)C2)C(=O)N(C)[C@H](C[C@@H](OC(C)=O)c1nc(C(=O)N[C@@H](Cc2ccccc2)C[C@H](C)C(=O)OC)cs1)C(C)C', 'SF-268 CNS', '30.4% (inactive)'),
  ('CC(=O)OC1CC2(O)C(CCC3(C)C(c4ccc(=O)oc4)CCC32O)C2(C)CCC(OC3OC(CO)C(O)C(O)C3O)C=C12 (centres undefined)', 'SF-268 CNS', '-97.4% (active)'),
  ('C#Cc1cccc(Nc2nc(Cl)nc3cc(NC(=O)CF)ccc23)c1', 'SF-268 CNS', '87.8% (inactive)'),
  ('OCCNC1CCCCC1', 'SF-268 CNS', '102% (inactive)'),
  ('O=P(O)(Nc1ccccc1)Nc1ccccc1', 'SF-268 CNS', '102% (inactive)'),
  ('CNC(=O)CCl', 'SF-268 CNS', '104% (inactive)'),
  ('Cc1nnc([S-])o1.[Au+].c1ccc([PH+](c2ccccc2)c2ccccc2)cc1', 'SF-268 CNS', '43.4% (inactive)'),
  ('Cc1ccc(P(=O)(O)O)cc1', 'SF-268 CNS', '109% (inactive)'),
  ('Nc1c(Cl)c(Cl)nc(C(=O)O)c1Cl', 'SF-268 CNS', '111% (inactive)'),
  ('CCCC(C)SP(=S)(SC(C)CCC)SC(C)CCC (centres undefined)', 'SF-268 CNS', '104% (inactive)'),
  ('CCOC(=O)c1cncn1C(C)c1ccccc1 (centres undefined)', 'SF-268 CNS', '113% (inactive)'),
  ('CN1CCN(c2ccc(Cl)cc2)CC1', 'SF-268 CNS', '88.5% (inactive)'),
  ('CC1=C(C)C(=O)O[C@@H]([C@](C)(O)[C@]2(O)CC[C@@]3(O)[C@@H]4C[C@H]5O[C@]56CC=CC(=O)[C@]6(C)[C@H]4CC[C@]23C)C1', 'SF-268 CNS', '-22.6% (active)'),
  ('C[C@]12CCc3sc(Nc4ccc(F)cc4F)nc3C1=CC[C@@H]1[C@@H]2CC[C@]2(C)C(=O)CC[C@@H]12', 'SF-268 CNS', '70.7% (inactive)'),
  ('CC12CCC3C(CCC4CC(O)CCC43C)C1CCC2=O (centres undefined)', 'SF-268 CNS', '116% (inactive)'),
  ('O=C1CCCCC1CN1CCCCC1 (centres undefined)', 'SF-268 CNS', '97.7% (inactive)'),
  ('Cc1cc[c-]cc1.Fc1c[c-]c(-c2ccccn2)c(F)c1.[Pt+2].c1ccc([PH+](c2ccccc2)c2ccccn2)cc1', 'SF-268 CNS', '62.1% (inactive)'),
  ('Cn1cc(-c2csc(-c3cn(CCCCN4CCOCC4)c4ccc(F)cc34)n2)c2cccnc21', 'SF-268 CNS', '63% (inactive)'),
  ('O=C(Cc1ccccc1)c1ccccc1', 'SF-268 CNS', '103% (inactive)'),
  ('CNC(=O)Oc1ccc(Cl)cc1SSc1cc(Cl)ccc1OC(=O)NC', 'SF-268 CNS', '65.8% (inactive)');
